tested on: intestinal alkaline phosphatase [Mus musculus]; assay: mouse intestinal phosphatase enzyme activation – biochemical, luminescence, single concentration, confirmation (AID 434970); conditions: purified mouse IAP, CDP-Star luminescence, 30 min, at 10 µM; hits give low values
Hit rate of the full screen: of about 11,000 compounds, about 310 (2.8%) were called active. What follows is part of a selection rich in actives, with near analogues and random picks from the rest.
test readout: activity change, negative = activation (%)
The reply should contain only the number, in %.

Answered cases to consult:
molecule | measurement units | activity change, negative = activation
Cc1ccc(C(=O)O)cc1S(=O)(=O)N1CCSCC1 | % | 8.35
Cc1cc(NC(=O)CN2C(=O)C3CC=CCC3C2=O)no1 (stereo unspecified) | % | 7.05

As a next step, examine the molecule that follows.
q: Form field: reported activity change, negative = activation of O=C(c1ccco1)N1CCN(CC(O)Cn2c3ccccc3c3ccccc32)CC1 (stereo unspecified)
a: 2.95

* * *

test system: intestinal alkaline phosphatase [Mus musculus]; experiment: mouse intestinal phosphatase enzyme activation – biochemical, luminescence, single concentration, confirmation (AID 434970); details: purified mouse IAP, CDP-Star luminescence, 30 min, at 10 µM; hits give low values
Among all 11,000 compounds or so, about 310 (2.8%) were called active. Only a selection was taken, and actives are over-represented in it overall.
test readout: activity change, negative = activation (%)
Express it in %; write the number only.

record smiles | test readout | measurement units | measured value
Fc1ccc2[nH]c3c(NCCN4CCOCC4)ncnc3c2c1 | activity change, negative = activation | % | -7.05
CCOc1ccc2[nH]c3c(NCCC(C)C)ncnc3c2c1 | activity change, negative = activation | % | -84.7
O=C(Nc1ccccc1Cl)C1CCN(Cc2cnn(-c3ccccc3)c2-n2cccc2)CC1 | activity change, negative = activation | % | -1.6
COC(=O)c1ccc(CNC(=O)Cn2cnc3c(NCc4ccccc4)ncnc32)cc1 | activity change, negative = activation | % | 1.05

q: // activity change, negative = activation lookup, key: COc1cccc(NC(=O)C2CCN(Cc3cnn(-c4ccccc4)c3-n3cccc3)CC2)c1
a: -101

* * *

test system: intestinal alkaline phosphatase [Mus musculus]; assay: mouse intestinal phosphatase enzyme activation – biochemical, luminescence, single concentration, confirmation (AID 434970); settings: purified mouse IAP, CDP-Star luminescence, 30 min, at 10 µM
Screen size: about 11,000 compounds; about 310 (2.8%) were called active. No stated cut-off is given here; in the data, active means activity change below about -85%; inactive means the rest. Only a selection was taken, and actives are over-represented in it overall.
Choose the fitting class; nothing outside active, inactive is accepted.

Take a look at these entries with their results.
compound | system tested | discrete label
Cc1ccc(C2CC(=O)Oc3cc(C)cc(C)c32)cc1 (centres undefined) | intestinal alkaline phosphatase [Mus musculus] | inactive
O=C(Nc1cnn(Cc2ccc(Cl)c(Cl)c2)c1)C12CC3CC(CC(C3)C1)C2 | intestinal alkaline phosphatase [Mus musculus] | inactive
C#CCOCCOCCOCCNc1nc(N2CCN(C(=O)CCCCCCCCCCNC(=O)[C@H]([C@@H](C)CC)n3cc(CCCCCN)nn3)CC2)nc(N2CCN(C(=O)CCCCCCCCCCNC(=O)[C@H](CCCCN)n3cc(CCCC(=O)O)nn3)CC2)n1 | intestinal alkaline phosphatase [Mus musculus] | active
COc1cc2oc(=O)cc(-c3ccc(-c4ccc(F)c(Cl)c4)cc3)c2c(OC)c1OC | intestinal alkaline phosphatase [Mus musculus] | inactive
CCOC(=O)c1c(N)sc(C(N)=O)c1C | intestinal alkaline phosphatase [Mus musculus] | inactive
O=C(NCc1ccccn1)NC12CC3CC(CC(C3)C1)C2 | intestinal alkaline phosphatase [Mus musculus] | inactive

q: Test call for this compound, please: C#CCOCCOCCOCCNc1nc(N2CCN(C(=O)CCCCCCCCCCNC(=O)[C@@H](CCC(=O)O)n3cc(CCCCCN)nn3)CC2)nc(N2CCN(C(=O)CCCCCCCCCCNC(=O)[C@H]([C@@H](C)CC)n3cc(CCCCCN)nn3)CC2)n1
a: active

q: Outcome? COc1ccc(S(=O)(=O)Nc2ccccc2)cc1OC
a: inactive

q: Answer briefly: the call reported for O=C(Nc1cnn(Cc2ccccc2)c1)NC12CC3CC(CC(C3)C1)C2 in this assay.
a: active
